Where do these numbers come from? They come from patent US6001823A.

MEASURED_TARGET: PapD (Escherichia coli, UniProt P15319)
RUN_DESCRIPTION: ELISA: PapD binding to peptides coated on microtiter wells
Set-up: made in house; species or system E. coli
ASSAY_SETUP: peptide coated on microtiter wells, ELISA
QUANTITY_NAME: binding of PapD to immobilized peptide

H-SGSMTMVLSFP-OH [G1'-11'WT, NH2--SGSMTMVLSFP--COOH] | binds
NH2--QNLIAGPFSATATLVASYS--COOH (H-QNLIAGPFSATATLVASYS-OH) [E1'-19'WT] | moderately
NH2--KSVVPGDYEATATFELTYR--COOH (H-KSVVPGDYEATATFELTYR-OH) [K1'-19'WT] | moderately
NH2--YALAPNAVIPTSLALL--COOH (H-YALAPNAVIPTSLALL-OH) [MS, random hydrophobic peptide, reference compound] | no binding
NH2--KPGELSGSMTMVLSFP--COOH (H-KPGELSGSMTMVLSFP-OH) [G1'-16'WT] | binds

# return binding of PapD to immobilized peptide for each item in the list
1. NH2--GILNGGDFQTTASMAMIYN--COOH (H-GILNGGDFQTTASMAMIYN-OH) [F1'-19'WT]
2. NH2--KKLEAGNYFAVLGFRVDYE--COOH (H-KKLEAGNYFAVLGFRVDYE-OH) [H1'-19'WT]

Result:
["moderately", "no binding"]

###

MEASURED_TARGET: PapD (Escherichia coli)
Sequence (P15319 22-239): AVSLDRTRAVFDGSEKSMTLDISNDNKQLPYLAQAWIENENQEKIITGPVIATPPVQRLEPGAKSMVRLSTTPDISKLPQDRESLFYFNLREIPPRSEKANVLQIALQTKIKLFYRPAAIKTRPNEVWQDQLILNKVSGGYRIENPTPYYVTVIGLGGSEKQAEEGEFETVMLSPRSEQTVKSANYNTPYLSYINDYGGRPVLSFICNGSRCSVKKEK
RUN_DESCRIPTION: Soluble inhibition ELISA: peptide inhibition of PapD binding to G1'-19'WT-coated wells
Parameters: made in house; species or system E. coli
ASSAY_SETUP: 25-fold molar excess of peptide; 100 pmol/well PapD; G1'-19'WT-coated wells
QUANTITY_NAME: % Inhibition (%)
One number for each entry, in %.

Worked set:
NH2--GKRKPGELSGSMTMVLSFP--CONH2 (H-GKRKPGELSGSMTMVLSFP-NH2) [G1'-19'amide] | 56
NH2--GKRKPGELSGSMTMVLSFP--COOH (H-GKRKPGELSGSMTMVLSFP-OH) [G1'-19'WT, 19 carboxyl terminal residues of PapG] | 63
NH2--YALAPNAVIPTSLALL--COOH (H-YALAPNAVIPTSLALL-OH) [MS, random hydrophobic peptide, reference compound] | 1

Next item in the queue.
response.value for NH2--EEGKRKPGELSGSMTMVLSF--CONH2 (H-EEGKRKPGELSGSMTMVLSF-NH2) [G2'-21'amide] (field: % Inhibition) = 0
